# Target or system: Neuronal acetylcholine receptor; alpha4/beta2 (Rattus norvegicus, UniProt P09483+P12390)
# Sequence (P09483 whole entry): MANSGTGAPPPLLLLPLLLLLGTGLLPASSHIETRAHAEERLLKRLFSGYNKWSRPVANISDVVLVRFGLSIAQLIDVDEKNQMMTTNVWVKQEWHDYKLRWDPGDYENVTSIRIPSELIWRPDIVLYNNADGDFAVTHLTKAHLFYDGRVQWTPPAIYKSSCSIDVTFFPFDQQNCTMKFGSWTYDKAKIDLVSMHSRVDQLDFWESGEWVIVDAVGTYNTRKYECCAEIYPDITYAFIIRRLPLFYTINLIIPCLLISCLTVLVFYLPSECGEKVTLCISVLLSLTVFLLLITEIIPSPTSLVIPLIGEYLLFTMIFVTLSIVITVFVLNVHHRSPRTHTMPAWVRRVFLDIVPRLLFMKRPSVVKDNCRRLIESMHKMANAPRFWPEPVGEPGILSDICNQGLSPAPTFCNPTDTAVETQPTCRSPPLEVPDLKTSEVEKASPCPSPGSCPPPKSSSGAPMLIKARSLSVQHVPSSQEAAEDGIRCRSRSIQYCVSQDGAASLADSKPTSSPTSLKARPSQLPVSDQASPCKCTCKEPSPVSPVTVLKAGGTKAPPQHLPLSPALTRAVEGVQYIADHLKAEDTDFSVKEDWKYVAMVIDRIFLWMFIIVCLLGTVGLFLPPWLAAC
# Sequence (P12390 whole entry): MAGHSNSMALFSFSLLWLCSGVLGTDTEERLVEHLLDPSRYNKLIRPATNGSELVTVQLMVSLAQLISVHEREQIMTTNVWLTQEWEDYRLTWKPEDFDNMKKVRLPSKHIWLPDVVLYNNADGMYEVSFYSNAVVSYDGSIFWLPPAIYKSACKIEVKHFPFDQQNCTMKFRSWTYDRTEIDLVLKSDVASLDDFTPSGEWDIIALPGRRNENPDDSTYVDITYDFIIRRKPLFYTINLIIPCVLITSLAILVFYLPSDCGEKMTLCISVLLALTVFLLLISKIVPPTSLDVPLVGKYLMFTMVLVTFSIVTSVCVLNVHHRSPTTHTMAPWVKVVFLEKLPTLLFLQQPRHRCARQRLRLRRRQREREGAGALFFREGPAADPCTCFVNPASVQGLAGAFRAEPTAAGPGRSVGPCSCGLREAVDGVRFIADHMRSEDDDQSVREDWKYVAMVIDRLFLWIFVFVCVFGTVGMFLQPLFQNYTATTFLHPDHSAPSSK
# Procedure summary: The compound was evaluated for percentage inhibition of binding of [3H]- nicotine to Nicotinic acetylcholine receptor alpha4-beta2 in Rat Cerebral Cortical Membranes
# Format: protein-complex assay
Would you mind telling me the reported Ki of each entry?
Answers are plain numbers, in µM.

Completed entries (count: 2):
>>> print(df.to_string())
                                   compound                          target_or_system  measure_name  units_text  quantitative_readout
0  COC(=O)C1CC2CCCC1N2 (configuration not stated)  Neuronal acetylcholine receptor; alpha4/beta2 (Rattus norvegicus, UniProt P09483+P12390)            Ki          µM                  0.15
1  COC(=O)[C@H]1CC2NC1CC[C@@H]2O (some centres not stated)  Neuronal acetylcholine receptor; alpha4/beta2 (Rattus norvegicus, UniProt P09483+P12390)            Ki          µM                     4

For the 2 compounds below, give their Ki values.
1. CC(=O)O[C@H]1CCC2CCC1N2 (some centres not stated)
2. COC(=O)[C@H]1CC2NC1CC[C@H]2O (some centres not stated)

1. 32
2. 64

###

# Target or system: Muscarinic acetylcholine receptor M4 (Homo sapiens) (UniProt P08173)
# Procedure summary: Inhibitory activity against [3H]-cyclic AMP accumulation in CHO transfected cells mediated by Muscarinic acetylcholine receptor M4
Measure name: IC50

>>> print(df.to_string())
                                   molecule  measure_name           result
0  CC(=O)OC(C)C[N+](C)(C)C (stereo not drawn)          IC50           700 nM
1    CC(=O)OC1CC2CCCC1N2 (stereo not drawn)          IC50  11 nM (agonist)

Note: attention shifts to another entry.
Look at this molecule and give its reported IC50. "C[C@@H]1O[C@H](C[N+](C)(C)C)C[C@H]1O"
470 nM

###

# Target or system: Muscarinic acetylcholine receptor M1 (Rattus norvegicus, UniProt P08482)
# Sequence (P08482 whole entry): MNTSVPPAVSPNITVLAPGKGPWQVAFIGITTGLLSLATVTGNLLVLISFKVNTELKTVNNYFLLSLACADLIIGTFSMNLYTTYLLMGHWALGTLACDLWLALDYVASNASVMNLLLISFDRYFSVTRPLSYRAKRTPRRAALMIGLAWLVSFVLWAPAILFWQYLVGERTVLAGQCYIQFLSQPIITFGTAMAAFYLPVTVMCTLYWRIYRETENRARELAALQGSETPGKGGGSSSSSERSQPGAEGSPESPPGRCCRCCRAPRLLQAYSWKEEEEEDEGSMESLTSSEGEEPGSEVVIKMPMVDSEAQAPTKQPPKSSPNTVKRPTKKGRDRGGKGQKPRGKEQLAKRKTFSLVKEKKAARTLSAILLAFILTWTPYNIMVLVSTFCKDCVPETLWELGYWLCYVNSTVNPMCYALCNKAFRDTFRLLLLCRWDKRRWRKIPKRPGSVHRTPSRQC
Measure name: Ki (µM)
Give bare numbers, in µM.

# returns recorded Ki (system: Muscarinic acetylcholine receptor M1 (Rattus norvegicus, UniProt P08482)) for CC(=O)OC1CC2CCCC1N2 (stereo unspecified)
22

###

# Target or system: Neuronal acetylcholine receptor; alpha4/beta2 (Rattus norvegicus, UniProt P09483+P12390)
# Procedure summary: The compound was evaluated for percentage inhibition of binding of [3H]- nicotine to Nicotinic acetylcholine receptor alpha4-beta2 in Rat Cerebral Cortical Membranes
# Assay type: protein-complex assay
What Ki was measured for each of the following?
State the result as a value with its unit after it.

Field: Ki. Fill in for each record below.
1. COC(=O)C1=CCCN(C)C1
2. CC(=O)O[C@@H]1CCC2CCC1N2 (stereo partly drawn)
3. CC(=O)OC1CC2CCCC1N2C (stereo not drawn)

1: 270 nM; 2: 24000 nM; 3: 1500 nM
